# measurement-target: T1, Full-length cynomolgus monkey TIGIT on CHO-K1 cells (CHO-K1 cynomolgus monkey TIGIT) (cynomolgus monkey)
# T1 construct: NCBI XP_015300911.1
# T1 sequence (chain, as listed by the source limits assumed): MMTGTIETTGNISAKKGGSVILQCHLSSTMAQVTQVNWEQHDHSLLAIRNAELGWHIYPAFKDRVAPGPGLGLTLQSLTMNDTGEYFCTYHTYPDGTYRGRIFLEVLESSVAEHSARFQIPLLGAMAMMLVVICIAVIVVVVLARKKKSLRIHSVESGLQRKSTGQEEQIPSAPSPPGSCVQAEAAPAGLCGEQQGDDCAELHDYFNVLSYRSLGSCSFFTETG
# assay: cell binding, CHO-K1 cynomolgus monkey TIGIT
reported-endpoint: EC50 (nM)
Give bare numbers, in nM.

A selection of reference data follows.
// Input: TIGIT-002-H1L3 (antibody, V domains shown, Humanized anti-TIGIT antibody) VH: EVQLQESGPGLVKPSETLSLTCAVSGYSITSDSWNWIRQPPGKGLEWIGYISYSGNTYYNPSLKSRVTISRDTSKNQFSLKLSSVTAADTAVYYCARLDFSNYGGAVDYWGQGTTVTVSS VL: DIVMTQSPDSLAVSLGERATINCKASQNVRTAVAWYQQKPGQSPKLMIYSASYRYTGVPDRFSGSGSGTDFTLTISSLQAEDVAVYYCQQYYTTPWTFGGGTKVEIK . Output its EC50 only.
0.143

Find the measured EC50 of TIGIT-070-H1L1 (antibody, V domains shown, Humanized anti-TIGIT antibody) VH: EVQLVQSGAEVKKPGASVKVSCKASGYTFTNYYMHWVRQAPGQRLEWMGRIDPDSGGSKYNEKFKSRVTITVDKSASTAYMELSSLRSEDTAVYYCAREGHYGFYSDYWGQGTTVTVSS VL: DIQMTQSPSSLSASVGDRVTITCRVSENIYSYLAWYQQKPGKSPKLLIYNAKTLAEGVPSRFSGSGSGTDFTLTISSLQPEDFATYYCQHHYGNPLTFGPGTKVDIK and report it.
0.0596

For the next question, use this binder.
Read the entry TIGIT-002-H2L2 (antibody, V domains shown, Humanized anti-TIGIT antibody) VH: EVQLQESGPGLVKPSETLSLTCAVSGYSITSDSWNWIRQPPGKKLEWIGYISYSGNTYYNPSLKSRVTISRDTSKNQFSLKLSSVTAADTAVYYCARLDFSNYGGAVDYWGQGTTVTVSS VL: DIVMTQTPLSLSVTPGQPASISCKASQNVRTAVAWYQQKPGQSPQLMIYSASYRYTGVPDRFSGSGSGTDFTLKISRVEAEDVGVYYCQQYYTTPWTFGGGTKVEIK and write its reported EC50.
0.12
